# Test system: MS2 coat protein
# protocol: apparent KD of MS2 coat protein; higher = weaker reporter binding
# statedConditions: Eterna round: R107; input ligand: tryptophan 2.4 mM
Criterion met means recorded apparent KD of MS2 coat protein is 300 nM or above; Criterion not met means it is below 300 nM.

Some solved cases for reference:
- chain: "GCACCAGGUACGGAUACCAGCUGCCCGAGAUACAUGAGGAUCACCCAUGUGACCUGAUUUAGCCCUUGGCAGCUGUACCUGGUGC [SSThB NP+V+V2 #1]"
  assignedClass: "Criterion not met"
- chain: "AUAAGGUAUCUGCUUCAUGGGUGAGCAGAUACCAGCUAGGAAACUAGCCCUUGGCAGCUGCAACAUGAGGAUCACCCAUGUAAUA [(T)'-(M)'-(T1)-(T2)-(M1)-(M2)_Design2]"
  assignedClass: "Criterion not met"
- chain: "UGUAUGUGAUCUGAUACCAGAGUUGAUAAUCUGAGGAUCACCCUGGUAAGGCGAAAGCCACUCCCUUGGCAGCAGAUCGCAUACU"
  assignedClass: "Criterion met"
- chain: "CCAUAGGGUAAAUACGUAAUCAUAUCUGAAGGAGCGUGGAUAUACACAGGUAGGUCGCAGAAUCACAUGAGGAUCACCCAUGUCU [Same State Arginine A GF12]"
  assignedClass: "Criterion not met"
- chain: "AAAGACAUGAGGAUCACCCAUGUGGGUGGGCGAGGACCGGUACGGCCGCCACUCGUGGGCGGGAAGGGAUAUUUAAUAAGGAAGA [same state--tryptophan A 1st shot]"
  assignedClass: "Criterion not met"

Can ACGUGCAGCAGAAGGAGCGUCUUAAUUCUACAUGAGGAUCACCCAUGUUUACAUUGGAUAUGACAGGUAGGUCGCUGAAGUACGA [#05 Same State - Arginine B] be said to have apparent KD of MS2 coat protein at or above 300 nM?
Criterion not met
